Measured values drawn from ChEMBL document CHEMBL5331131 for this set.

METHOD_DESCRIPTION: Clearance in Sprague-Dawley rat at 2.5 mg/kg, iv measured upto 24 hrs by LC-MS/MS analysis
Format: ADME, organism-based
CONDITION_SUMMARY: in vivo
Each entry below carries its recorded clearance.
Expressed in mL/min/kg, but write only the number.

COc1cc(NC(C(=O)c2c[nH]c3cc(F)ccc23)c2ccc(F)cc2)cc(OCCO)c1 (stereo in doubt) | 13.9

The measured clearance associated with COc1cc(NC(C(=O)c2c[nH]c3c(C)c(F)ccc23)c2ccc(F)cc2OC)cc(OCCO)c1 (single isomer, unassigned; (+)) reads 16.4

The measured clearance associated with COc1cc(NC(C(=O)c2c[nH]c3cc(OC)c(C)cc23)c2ccc(F)cc2OC)cc(OCCO)c1 (single isomer, unassigned; (+)) reads 13.6
